test: Intrinsic clearance in rat hepatocytes assessed per million cells; format: ADME, cell-based, Hepatocyte; conditions: read-out: CLH
readoutName: hepatocyte CLint (µL/min/1e6 cells)

Here are 5 compounds together with their reported answers.
Req: Given the entry O=C(Cc1ccccc1)Nc1nnc(N[C@@H]2CCN(c3nccnn3)C2)s1 , report its measured hepatocyte CLint.
Resp: 5

Req: Would you mind doing O=C(NCc1ccccc1)c1nnc(N[C@@H]2CCN(c3cccnn3)C2)s1 as well?
Resp: 31

Req: Would you mind doing O=C(Cc1cccc(OC(F)(F)F)c1)Nc1ccc(CCCCc2nnc(NC(=O)Cc3ccccn3)s2)nn1 as well?
Resp: 30.2

Req: Would you mind doing CO[C@H](C(=O)Nc1nnc(N[C@@H]2CCN(c3nccnn3)C2)s1)c1ccccc1 as well?
Resp: 4.1

Req: Would you mind doing CO[C@H](C(=O)Nc1nnc(N[C@@H]2CCN(c3cccnn3)C2)s1)c1ccccc1 as well?
Resp: 4.6

P: C[C@H](C(=O)Nc1nnc(N[C@@H]2CCN(c3cccnn3)C2)s1)c1ccccc1
Q: O=C(Cc1ccccc1)Nc1nnc(N[C@@H]2CCN(c3cccnn3)C2)s1
Req: Of the two listed items, P and Q , which carries the larger hepatocyte CLint figure? Output the label that corresponds to your choice.
Resp: P
